Assignment: determine reported half-life for the given molecules.
experimental-details: in vivo
Design: species or system mice
measurement-setup: female, athymic nude (nu/nu), mouse, plasma, iv, combined free drugs in DMSO, i.v., 20 mg/kg paclitaxel + 37.5 mg/kg 17-AAG; plasma; mean ± SD, n = 4; read-out: t1/2 (elimination half-life)

Items follow; give half-life for each.
1. CC(=O)O[C@H]1C(=O)[C@@]2(C)[C@H]([C@H](OC(=O)c3ccccc3)[C@]3(O)C[C@H](OC(=O)[C@H](O)[C@@H](NC(=O)c4ccccc4)c4ccccc4)C(C)=C1C3(C)C)[C@]1(OC(C)=O)CO[C@@H]1C[C@@H]2O
2. C=CCNC1=C2C[C@@H](C)C[C@H](OC)[C@H](O)[C@@H](C)/C=C(\C)[C@H](OC(N)=O)[C@@H](OC)/C=C\C=C(/C)C(=O)NC(=CC1=O)C2=O

1: ~40 min; 2: 20.3 min

meta.source: paper PMC3591361
